Biological target: T1, human CD25 (NP_000408.1) (Met 1-Cys 213) C-terminally fused with 6-histidine tag (human, UniProt P01589 22-213)
T1 construct: range 1-213; Expressed in CHO-K1 cells; also called human CD25-his
T1 sequence: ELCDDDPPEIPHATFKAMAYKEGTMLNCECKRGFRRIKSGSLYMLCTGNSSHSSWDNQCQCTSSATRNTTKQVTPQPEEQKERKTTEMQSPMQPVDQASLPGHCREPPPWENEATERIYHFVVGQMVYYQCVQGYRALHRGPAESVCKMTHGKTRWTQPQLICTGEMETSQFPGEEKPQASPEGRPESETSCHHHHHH
Assay: SPR (BIAcore X100), human CD25-his captured by anti-histidine antibody, antibody as analyte, 1:1 model
reported.property: kon (M⁻¹ s⁻¹)
Give the quantity in M⁻¹ s⁻¹, number only.

[in] Using the record for humanized antibody 2046-111H1L1-m2 (antibody, human IgG1, kappa, V domains shown) VH: EVQLQESGPGLVKPSQTLSLTCTVSGHSITSDYAWNWIRQPPGKGLEWIGYISYSGSTIYNPSLKSRVTISRDTSKNQFSLKLSSVTAADTAVYYCARWLLQNYYAMDYWGQGTLVTVSS VL: EIVLTQSPGTLSLSPGERATLSCRSSQSLVHSNGNTYLHWYQQKPGQAPRLLIYKVSNRFSGIPDRFSGSGSGTDFTLTISRLEPEDFAVYYCSQSTHVPLTFGQGTKLEIKR , report its kon.
[out] 652000
